Assay: Evaluation of blood-brain barrier permeability (concentration in brain after oral administration, HPLC)
Assay type: in vivo
Settings: male C57BL/6N mice, 100 mg/kg once orally, fasting, 0.5 h after administration
Cut-off 300 ng/100 μg on Amount of blood brain barrier permeation, inclusive. At or above means true (1); below means false (0).

Some solved entries appear below for comparison.
1) Cc1cc(C)c(OCC(=O)Nc2nc(-c3ccccn3)cs2)c(C)c1 [Compound (X), reference compound] ... false (0)
2) Cc1cc(C)c(O[C@@H](C)C(=O)Nc2nc(-c3ccccn3)c[nH]2)c(C)c1 ... true (1)
3) Cc1cc(C)c(NCC(=O)Nc2nc(-c3ccccn3)c[nH]2)c(C)c1 ... false (0)
4) Cc1cc(C)c(O[C@H](C)C(=O)Nc2nc(-c3ccccn3)c[nH]2)c(C)c1 ... false (0)
5) Cc1cc(C)c(OCC(=O)Nc2nc(-c3ccccn3)c[nH]2)c(C)c1 [Compound (Ie), reference compound] ... false (0)
6) Cc1cc(C)c(N(C)CC(=O)Nc2nc(-c3ccccn3)c[nH]2)c(C)c1 ... true (1)

stdin: Dear colleague, could you confirm whether `Cc1cc(C)c(OC(C)(C)C(=O)Nc2nc(-c3ccccn3)c[nH]2)c(C)c1` has Amount of blood brain barrier permeation at or above 300 ng/100 μg?
stdout: false (0)

====

Test system: Human neuroblastoma SH-SY5Y cells
Test: Oxidative stress-mediated cell death suppressive (AOSCD) activity in differentiated nerve cells, menadione, AlamarBlue
Assay type: cell-based
Settings: RA-differentiated SH-SY5Y cells, compound 24 hours before menadione, 4 hours oxidative stress treatment, read-out: ED50 (the source's name)
# pEC50 listing for each entry below
pEC50 field: float, defined as -log10 of concentration (mol/L).

Worked cases, pEC50 given:
1) Cc1cc(C)c(O[C@H](C)C(=O)Nc2nc(-c3ccccn3)c[nH]2)c(C)c1 ... 5.10
2) Cc1cc(C)c(N(C)CC(=O)Nc2nc(-c3ccccn3)c[nH]2)c(C)c1 ... 5.40

Now let's try a different one.
stdin: Looking for the measured pEC50 of Cc1cc(C)c(OCC(=O)Nc2nc(-c3ccccn3)cs2)c(C)c1 [Compound (X), reference compound] , can you help?
stdout: 4.70

====

System: Human neuroblastoma SH-SY5Y cells
Assay: Oxidative stress-mediated cell death suppressive (AOSCD) activity in differentiated nerve cells, menadione, AlamarBlue
Format: cell-based
Conditions: RA-differentiated SH-SY5Y cells, compound 24 hours before menadione, 4 hours oxidative stress treatment, read-out: ED50 (the source's name)
MEASUREMENT TYPE: EC50 (µM)
Output spec: scalar in µM, unitless text.

For orientation, consider the following solved cases.
1. Cc1cc(C)c(OC(C)(C)C(=O)Nc2nc(-c3ccccn3)c[nH]2)c(C)c1 [Compound 12] ... 4
2. Cc1cc(C)c(OCC(=O)Nc2nc(-c3ccccn3)c[nH]2)c(C)c1 [Compound (Ie), reference compound] ... 6
3. Cc1cc(C)c(O[C@@H](C)C(=O)Nc2nc(-c3ccccn3)c[nH]2)c(C)c1 [Compound 11] ... 4

stdin: Query the reported EC50 for Human neuroblastoma SH-SY5Y cells; item: Cc1cc(C)c(NCC(=O)Nc2nc(-c3ccccn3)c[nH]2)c(C)c1 [Compound 22]
stdout: 21

====

Listing: solubility at 24 h of selected molecules
Assay: Evaluation of solubility in the 1st fluid (pH1.2) of the Japanese pharmacopeia
Type: physicochemical
Conditions: 1st fluid (pH 1.2) of the Japanese Pharmacopeia, pH 1.2, simulated gastric fluid, thermodynamic from solid, 25° C.
Reply with just the number (in µg/mL).

1) Cc1cc(C)c(O[C@H](C)C(=O)Nc2nc(-c3ccccn3)c[nH]2)c(C)c1 ... 7880
2) Cc1cc(C)c(OCC(=O)Nc2nc(-c3ccccn3)c[nH]2)c(C)c1 [Compound (Ie), reference compound] ... 610
3) Cc1cc(C)c(N(C)CC(=O)Nc2nc(-c3ccccn3)c[nH]2)c(C)c1 ... 3070
4) Cc1cc(C)c(O[C@@H](C)C(=O)Nc2nc(-c3ccccn3)c[nH]2)c(C)c1 ... 7980
5) Cc1cc(C)c(OCC(=O)Nc2nc(-c3ccccn3)cs2)c(C)c1 [Compound (X), reference compound] ... 30

stdin: I'd like to know its solubility at 24 h. The molecule in question is `Cc1cc(C)c(OC(C)(C)C(=O)Nc2nc(-c3ccccn3)c[nH]2)c(C)c1`
stdout: 3760

stdin: Param item: `Cc1cc(C)c(NCC(=O)Nc2nc(-c3ccccn3)c[nH]2)c(C)c1`
stdout: 1810

====

# Amount of blood brain barrier permeation values compiled below
Assay: Evaluation of blood-brain barrier permeability (concentration in brain after oral administration, HPLC)
Type: in vivo
Conditions: male C57BL/6N mice, 100 mg/kg once orally, fasting, 1 h after administration

Sample records with Amount of blood brain barrier permeation:
1) Cc1cc(C)c(N(C)CC(=O)Nc2nc(-c3ccccn3)c[nH]2)c(C)c1 ... 370 ng/100 μg
2) Cc1cc(C)c(OCC(=O)Nc2nc(-c3ccccn3)cs2)c(C)c1 [Compound (X), reference compound] ... 26 ng/100 μg
3) Cc1cc(C)c(NCC(=O)Nc2nc(-c3ccccn3)c[nH]2)c(C)c1 ... 16 ng/100 μg

stdin: Recorded Amount of blood brain barrier permeation of `Cc1cc(C)c(O[C@@H](C)C(=O)Nc2nc(-c3ccccn3)c[nH]2)c(C)c1` , please.
stdout: 372 ng/100 μg

stdin: Query `Cc1cc(C)c(O[C@H](C)C(=O)Nc2nc(-c3ccccn3)c[nH]2)c(C)c1` next
stdout: 225 ng/100 μg

stdin: Quick one: `Cc1cc(C)c(OC(C)(C)C(=O)Nc2nc(-c3ccccn3)c[nH]2)c(C)c1`
stdout: 133 ng/100 μg

stdin: And the next one, Cc1cc(C)c(OCC(=O)Nc2nc(-c3ccccn3)c[nH]2)c(C)c1 [Compound (Ie), reference compound] ?
stdout: 8 ng/100 μg
